- assay-procedure: Cytotoxicity against human HFF cells after 72 hrs by MTT assay
- Format: cell-based
Catalogue of CC50 at 72 h values
reported-endpoint: CC50 at 72 h (nM)

- compound: "COc1cccc2c1C(=O)c1c(O)c3c(c(O)c1C2=O)C[C@@](O)(C(=O)CO)C[C@@H]3O[C@H]1C[C@H](N)[C@H](O)[C@H](C)O1 [DOXORUBICIN]"
  reported-endpoint: "CC50 at 72 h"
  result-operator: "="
  data-value: 30
- compound: "CCc1nc(N)nc(N)c1-c1ccc(Cl)cc1 [PYRIMETHAMINE]"
  reported-endpoint: "CC50 at 72 h"
  result-operator: ">"
  data-value: 50000
